assay: Verification pharmacokinetic experiment in rats, SPC 60 g crude drug/kg by gavage, UFLC-MS/MS, DAS 2.0; format: in vivo, rat; conditions: rat, plasma, po, 0.22 mg/kg, compartment model parameters, DAS 2.0; rats p.o. SPC 60 g crude drug/kg; Mean, 5 rats; read-out: CL/F (converted)
quantity: CL/F (mL/min/kg)
Output spec: scalar in mL/min/kg, unitless text.

Exercise: May I ask what CL/F has been recorded for COc1ccc(-c2coc3c(OC)c(O)ccc3c2=O)cc1 [Constituent 2, 8-O-methylretusin] ?
Key: 209

====

assay: Verification pharmacokinetic experiment in rats, SPC 60 g crude drug/kg by gavage, UFLC-MS/MS, DAS 2.0; format: in vivo, rat; conditions: rat, plasma, po, 1.4 mg/kg; statistical moment parameters, DAS 2.0; rats p.o. SPC 60 g crude drug/kg; Mean, 5 rats; read-out: Vz/F
quantity: Vd/F (L/kg)
Answer format: numeric, L/kg implied, no suffix.

Exercise: Could you tell me which Vd/F is on file for "O=c1c(-c2ccc(O)cc2)coc2cc(O[C@@H]3O[C@H](CO)[C@@H](O)[C@H](O)[C@H]3O)ccc12" ?
Key: 103
